Molecular target: p53 Y220C (Homo sapiens, UniProt P04637, Y220C)
Test: Luciferase Reporter Assay (Luc), p53 response element, NClH1299 cells with inducible p53 Y220C
Type: cell-based
Settings: luciferase reporter, NClH1299 inducible p53 Y220C, 6 hour; 10 uM tool compound as positive control
MEASUREMENT_NAME: Emax

Exam item: Item under review: CNC(=O)c1ccc(NCC#Cc2nc3c(N[C@@H]4CCn5nccc5C4)cccn3c2SC(F)(F)F)c(OC)c1 . Reported Emax?
Marked response: < 70%

Exam item: Ok, now CNC(=O)c1ccc(OC)c(NCC#Cc2nc3c(N[C@@H]4CCN(C)C[C@@H]4F)cccn3c2SC(F)F)c1
Marked response: 80 to 90%

Exam item: Ok, now COc1cc(S(C)(=O)=O)ccc1NCC#Cc1nc2c(N[C@H]3CCN(C)C[C@H]3F)cccn2c1CC(F)(F)F
Marked response: 70 to 80%

Exam item: Ok, now COc1cc(C(=O)N(C)C)ccc1NCC#Cc1nc2c(N[C@@H]3CCN(C)C[C@@H]3F)cccn2c1CC(F)(F)F
Marked response: 70 to 80%

Exam item: Ok, now CNC(=O)c1ccc(OC)c(NCC#Cc2nc3c(NC4CC5(C4)CN(CC(F)F)C5)cccn3c2SC(F)(F)F)c1
Marked response: > 90%

Exam item: Ok, now CNC(=O)c1ccc(NCC#Cc2nc3c(N[C@@H]4CCN(C)C[C@@H]4F)cccn3c2CC(F)(F)F)c(OCCOC)c1
Marked response: 70 to 80%

Exam item: Ok, now CNC(=O)c1ccc(NCC#Cc2nc3c(N[C@H]4CCN(C)CC4(F)F)cccn3c2CC(F)(F)F)c(OC)c1 (single isomer, unassigned)
Marked response: < 70%

====

Target: p53 Y220C mutant protein (amino acid residues 94-293) (Homo sapiens, UniProt P04637, Y220C)
Construct: p53 Y220C mutant protein (amino acid residues 94-293)
Experiment: Thermal Shift Assay (TSA), dTM
Format: binding
Settings: thermal shift, 10 uM compound; read-out: TSA P53 Y220C dTM (10 uM)
Protocol: Thermal Shift Assay (TSA) Protocol 5 μM recombinant p53 Y220C mutant protein (amino acid residues 94-293) was incubated with 10 μM or 100 μM compound for 3 hours at 20 °C in buffer containing 20 mM HEPES, pH7.4, 100 mM NaCl, 0.01% Pluronic F-127, and 1% DMSO in the presence of 400-fold diluted Sypro Orange (ThermoFisher Scientific catalog number 4461146), on a 384-well PCR plate (Applied Biosystems catalog number 4483285). The volume was 5 μL/well. […]
Field: ΔTm at 10 µM. Provide a value for each of the compounds that follow.

Exam item: Item under review: CNC(=O)c1ccc(NCC#Cc2nc3c(N[C@H]4C[C@@H]5CC[C@@H](N5)[C@H]4F)cccn3c2SC(F)(F)F)c(OC)c1 . Reported ΔTm at 10 µM?
Marked response: ≥ 10 °C

Exam item: Ok, now COc1cc(C(N)=O)ccc1NCC#Cc1nc2c(N[C@@H]3CCN(C)C[C@@H]3F)cccn2c1SC(F)(F)F
Marked response: ≥ 10 °C

Exam item: Ok, now CNC(=O)c1ccc(OC)c(NCC#Cc2nc3c(N[C@@H]4C[C@H]5CC[C@@H]([C@@H]4F)N5C)cccn3c2SC(F)(F)F)c1
Marked response: ≥ 10 °C

====

Molecular target: p53 Y220C (Homo sapiens, UniProt P04637, Y220C)
Experiment: Luciferase Reporter Assay (Luc), p53 response element, NClH1299 cells with inducible p53 Y220C
Format: cell-based
Conditions: luciferase reporter, NClH1299 inducible p53 Y220C, 6 hour; read-out: Luc P53 Y220C AC50
Structures can show the parent of a compound that is named as a salt.
MEASUREMENT_NAME: AC50

Exam item: Item under review: CNC(=O)c1ccc(NCC#Cc2nc3c(NC4CCN(C)CC4)cc(N)cn3c2CC(F)(F)F)c(OC)c1 . Reported AC50?
Marked response: > 3 µM

Exam item: Ok, now CNC(=O)N1CCC(Nc2cccn3c(CC(F)(F)F)c(C#CCNc4ccc(S(C)(=O)=O)cc4OC)nc23)CC1
Marked response: > 3 µM

Exam item: Ok, now COc1cc(S(=O)(=O)C(C)C)ccc1NCC#Cc1nc2c(N[C@@H]3CCN(C)C[C@@H]3F)cccn2c1SC(F)(F)F
Marked response: < 0.75 µM

Exam item: Ok, now COc1cc(C(=O)N2CCC2)ccc1NCC#Cc1nc2c(N[C@@H]3CCN(C)C[C@@H]3F)cccn2c1SC(F)(F)F
Marked response: < 0.75 µM

Exam item: Ok, now CCNC(=O)c1ccc(NCC#Cc2nc3c(N[C@@H]4CCN(C)C[C@@H]4F)cccn3c2SC(F)(F)F)c(OC)c1
Marked response: < 0.75 µM

Exam item: Ok, now CNC(=O)c1ccc(NCC#Cc2nc3c(N[C@@H]4C[C@H]5COC[C@@H]([C@@H]4F)N5C)cccn3c2SC(F)(F)F)c(OC)c1
Marked response: > 3 µM

Exam item: Ok, now COc1cc(S(C)(=O)=O)ccc1NCC#Cc1nc2c(NC3CCN(C)CC3)cc(O)cn2c1CC(F)(F)F [Example 27, TFA salt]
Marked response: > 3 µM

====

Field: ΔTm at 100 µM. Provide a value for each of the compounds that follow.
Target: p53 Y220C mutant protein (amino acid residues 94-293) (Homo sapiens, UniProt P04637, Y220C)
Construct: p53 Y220C mutant protein (amino acid residues 94-293)
Test: Thermal Shift Assay (TSA), dTM
Type: binding
Conditions: thermal shift, 100 uM compound; read-out: TSA P53 Y220C dTM (100 uM)

Exam item: Item under review: CNC(=O)c1ccc(NCC#Cc2nc3c(N[C@@H]4CCN(C)C[C@@H]4F)cccn3c2CC(F)(F)F)c(C(F)(F)F)c1 [Example 54] . Reported ΔTm at 100 µM?
Marked response: ≥ 10 °C

Exam item: Ok, now CNC(=O)c1ccc(NCC#Cc2nc3c(NC4CCN(C)CC4)cc(NC(C)=O)cn3c2CC(F)(F)F)c(OC)c1 [Example 41]
Marked response: 1 to 5 °C

Exam item: Ok, now CNC(=O)c1ccc(NCC#Cc2nc3c(N[C@@H]4CCN(C)C[C@@H]4F)cccn3c2CC(F)(F)F)c(OC(F)(F)F)c1 [Example 53]
Marked response: 5 to 10 °C

Exam item: Ok, now CN1CC[C@@H](Nc2cccn3c(CC(F)(F)F)c(C#CC(C)(C)O)nc23)[C@@H](F)C1 [Example 69]
Marked response: 5 to 10 °C

Exam item: Ok, now CNC(=O)c1ccc(NCC#Cc2cc3c(N[C@@H]4CCN(C)C[C@@H]4F)nccn3c2SC(F)F)c(OC)c1 [Example 196, formic acid]
Marked response: ≥ 10 °C

Exam item: Ok, now COc1cc(S(C)(=O)=O)ccc1NCC#Cc1nc2c(NC3CCN(C)CC3)cc(NC(=O)OC(C)(C)C)cn2c1CC(F)(F)F [Example 31]
Marked response: 1 to 5 °C

Exam item: Ok, now COc1ccc(S(C)(=O)=O)cc1NCC#Cc1nc2c(N[C@@H]3CCN(C)C[C@@H]3F)cccn2c1SC(F)(F)F [Example 84]
Marked response: ≥ 10 °C

====

Target: p53 Y220C mutant protein (amino acid residues 94-293) (Homo sapiens, UniProt P04637, Y220C)
Construct: p53 Y220C mutant protein (amino acid residues 94-293)
Assay: Thermal Shift Assay (TSA), dTM
Assay type: binding
Details: thermal shift, 100 uM compound; read-out: TSA P53 Y220C dTM (100 uM)
MEASUREMENT_NAME: ΔTm at 100 µM

Exam item: Item under review: COc1cc(S(=O)(=O)C2CC2)ccc1NCC#Cc1nc2c(N[C@@H]3CCN(C)C[C@@H]3F)cccn2c1CC(F)(F)F . Reported ΔTm at 100 µM?
Marked response: ≥ 10 °C

Exam item: Ok, now CNC(=O)c1ccc(NCC#Cc2nc3c(N[C@H]4C[C@@H]5CC[C@H]([C@H]4F)N5C)cccn3c2SC(F)(F)F)c(OC)c1
Marked response: ≥ 10 °C

Exam item: Ok, now CNC(=O)c1ccc(NCC#Cc2nc3c(N[C@@H]4CCN(C)C[C@@H]4F)cccn3c2NC)c(OC)c1
Marked response: 5 to 10 °C

Exam item: Ok, now CNC(=O)c1ccc(NCC#Cc2nc3c(N[C@@H]4CCn5nccc5C4)cccn3c2SC(F)(F)F)c(OC)c1
Marked response: 5 to 10 °C

====

Molecular target: p53 Y220C mutant protein (amino acid residues 94-293) (Homo sapiens, UniProt P04637, Y220C)
Construct: p53 Y220C mutant protein (amino acid residues 94-293)
Test: Thermal Shift Assay (TSA), dTM
Type: binding
Settings: thermal shift, 100 uM compound; read-out: TSA P53 Y220C dTM (100 uM)
Method: Thermal Shift Assay (TSA) Protocol 5 μM recombinant p53 Y220C mutant protein (amino acid residues 94-293) was incubated with 10 μM or 100 μM compound for 3 hours at 20 °C in buffer containing 20 mM HEPES, pH7.4, 100 mM NaCl, 0.01% Pluronic F-127, and 1% DMSO in the presence of 400-fold diluted Sypro Orange (ThermoFisher Scientific catalog number 4461146), on a 384-well PCR plate (Applied Biosystems catalog number 4483285). The volume was 5 μL/well. […]
MEASUREMENT_NAME: ΔTm at 100 µM

Exam item: Item under review: CN1CC[C@@H](Nc2cccn3c(CC(F)(F)F)c(C#CCN)nc23)[C@@H](F)C1 . Reported ΔTm at 100 µM?
Marked response: 1 to 5 °C

Exam item: Ok, now COc1ccc(C(=O)NC(C)C)cc1NCC#Cc1nc2c(N[C@@H]3CCN(C)C[C@@H]3F)cccn2c1SC(F)(F)F
Marked response: ≥ 10 °C

Exam item: Ok, now CNC(=O)c1ccc(OC)c(NCC#Cc2nc3c(N[C@@H]4CCNC[C@@H]4F)cccn3c2SC(F)F)n1
Marked response: ≥ 10 °C

Exam item: Ok, now CNC(=O)c1cccc(NCC#Cc2nc3c(N[C@@H]4CCN(C)C[C@@H]4F)cccn3c2SC(F)(F)F)n1
Marked response: ≥ 10 °C

Exam item: Ok, now CNC(=O)Nc1cc(NC2CCN(C)CC2)c2nc(C#CCNc3ccc(C(=O)NC)cc3OC)c(CC(F)(F)F)n2c1
Marked response: 1 to 5 °C

Exam item: Ok, now COc1ccc(C(N)=O)cc1NCC#Cc1nc2c(N[C@@H]3CCN(C)C[C@@H]3F)cccn2c1SC(F)(F)F
Marked response: ≥ 10 °C

Exam item: Ok, now COc1cc(S(C)(=O)=O)ccc1NCC#Cc1nc2c(N[C@@H]3CCN(C)C[C@@H]3F)cccn2c1CC(F)(F)F
Marked response: ≥ 10 °C

Exam item: Ok, now COc1cc(S(=O)(=O)C(C)C)ccc1NCC#Cc1nc2c(N[C@@H]3CCN(C)C[C@@H]3F)cccn2c1CC(F)(F)F
Marked response: ≥ 10 °C

Exam item: Ok, now CCNC(=O)c1ccc(NCC#Cc2nc3c(N[C@@H]4CCN(C)C[C@@H]4F)cccn3c2CC(F)(F)F)c(OC)c1
Marked response: ≥ 10 °C

Exam item: Ok, now CNC(=O)c1ccc(NCC#Cc2nc3c(N[C@@H]4CCN(C)C[C@@H]4F)cccn3c2SC(F)(F)F)cn1
Marked response: ≥ 10 °C

Exam item: Ok, now CNC(=O)c1ccc(NCC#Cc2nc3c(N[C@@H]4CCC(=O)NC4)cccn3c2SC(F)(F)F)c(OC)c1
Marked response: 5 to 10 °C

Exam item: Ok, now CNC(=O)c1ccc(NCC#Cc2nc3c(N[C@@H]4CCC(=O)N(C)C4)cccn3c2SC(F)(F)F)c(OC)c1
Marked response: ≥ 10 °C

Exam item: Ok, now CNC(=O)c1cc(OC)c(NCC#Cc2nc3c(N[C@@H]4CCN(C)C[C@@H]4F)cccn3c2CC(F)(F)F)cc1Cl
Marked response: ≥ 10 °C

Exam item: Ok, now CNC(=O)c1ccc(NCC#Cc2nc3c(N[C@@H]4CCN(C)C[C@@H]4F)cc(F)cn3c2SC(F)(F)F)c(OC)c1
Marked response: ≥ 10 °C
